assayComment: Luciferase activity of purified RLuc mutants (light output integrated over 10 s, luminometer)
Assay type: biochemical
reportedConditions: coelenterazine-n; relative to native enzyme
Field: Activity (relative to RLuc) n. Provide a value for each of the molecules that follow.
One number for each entry.

Consider the following items and state reported Activity (relative to RLuc) n for each.
1. C124A/G229E: RLuc mutant C124A/G229E (protein) MASKVYDPEQRKRMITGPQWWARCKQMNVLDSFINYYDSEKHAENAVIFLHGNAASSYLWRHVVPHIEPVARCIIPDLIGMGKSGKSGNGSYRLLDHYKYLTAWFELLNLPKKIIFVGHDWGAALAFHYSYEHQDKIKAIVHAESVVDVIESWDEWPDIEEDIALIKSEEGEKMVLENNFFVETMLPSKIMRKLEPEEFAAYLEPFKEKGEVRRPTLSWPREIPLVKGEKPDVVQIVRNYNAYLRASDDLPKMFIESDPGFFSNAIVEGAKKFPNTEFVKVKGLHFSQEDAPDEMGKYIKSFVERVLKNEQ
2. A54P/A55T/C124A: RLuc mutant A54P/A55T/C124A (protein) MASKVYDPEQRKRMITGPQWWARCKQMNVLDSFINYYDSEKHAENAVIFLHGNPTSSYLWRHVVPHIEPVARCIIPDLIGMGKSGKSGNGSYRLLDHYKYLTAWFELLNLPKKIIFVGHDWGAALAFHYSYEHQDKIKAIVHAESVVDVIESWDEWPDIEEDIALIKSEEGEKMVLENNFFVETMLPSKIMRKLEPEEFAAYLEPFKEKGEVRRPTLSWPREIPLVKGGKPDVVQIVRNYNAYLRASDDLPKMFIESDPGFFSNAIVEGAKKFPNTEFVKVKGLHFSQEDAPDEMGKYIKSFVERVLKNEQ

# output
1: 0.03; 2: 0.38
